Molecular target: UniProtKB Q14973
Sequence (Q14973 whole entry): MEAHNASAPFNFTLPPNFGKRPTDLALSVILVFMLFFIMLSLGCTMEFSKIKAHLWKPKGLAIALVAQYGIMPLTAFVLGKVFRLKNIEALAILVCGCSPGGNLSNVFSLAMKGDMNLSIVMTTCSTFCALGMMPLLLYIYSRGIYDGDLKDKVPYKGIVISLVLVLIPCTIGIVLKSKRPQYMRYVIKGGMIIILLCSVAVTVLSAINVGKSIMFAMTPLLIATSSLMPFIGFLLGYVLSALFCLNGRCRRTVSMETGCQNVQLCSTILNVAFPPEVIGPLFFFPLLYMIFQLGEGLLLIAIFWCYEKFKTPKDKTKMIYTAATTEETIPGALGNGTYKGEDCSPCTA
Experiment: Screening taurocholate uptake assay (96-well, [14C]taurocholate, 10 µM drug)
Settings: combined ranking from functional and binding screening assays
Structures can show the parent of a compound that is named as a salt.
Observation Type: Ranking score

Molecule: Cc1cc(=O)oc2cc(O)ccc12
Measured On: UniProtKB Q14973
Recorded Measurement: 448.437

Molecule: CC(C)COCC(CN(Cc1ccccc1)c1ccccc1)N1CCCC1 (centres unmarked) [Bepridil hydrochloride]
Measured On: UniProtKB Q14973
Recorded Measurement: 392.989

Molecule: COc1ccc(CN2CCN(C(c3ccc(F)cc3)c3ccc(F)cc3)CC2)c(OC)c1OC.Cl.Cl [Lomerizine hydrochloride]
Measured On: UniProtKB Q14973
Recorded Measurement: 328.713

Molecule: COc1cccc(C2(O)CCCCC2CN(C)C)c1.Cl (centres unmarked) [Tramadol hydrochloride]
Measured On: UniProtKB Q14973
Recorded Measurement: 410.66

Molecule: CC(C)(Oc1ccc(CCNC(=O)c2ccc(Cl)cc2)cc1)C(=O)O [Bezafibrate]
Measured On: UniProtKB Q14973
Recorded Measurement: 430.871

Molecule: CCC[C@H](N[C@@H](C)C(=O)N1[C@H](C(=O)O)C[C@@H]2CCCC[C@@H]21)C(=O)OCC
Measured On: UniProtKB Q14973
Recorded Measurement: 319.862

Molecule: CCN(CC)CCOC(=O)c1ccc(N)cc1 [Procaine hydrochloride]
Measured On: UniProtKB Q14973
Recorded Measurement: 459.439

Molecule: C[C@]12C[C@H](O)[C@H]3[C@@H](CCC4=CC(=O)CC[C@@]43C)[C@@H]1CC[C@@H]2C(=O)CO
Measured On: UniProtKB Q14973
Recorded Measurement: 434.757

Molecule: O=C(Oc1cccc2cccnc12)c1ccccc1
Measured On: UniProtKB Q14973
Recorded Measurement: 381.13

Molecule: O=C1NCCN1c1ncc([N+](=O)[O-])s1
Measured On: UniProtKB Q14973
Recorded Measurement: 301.174

Molecule: C[C@]12CCC(=O)C=C1CC[C@@H]1[C@@H]2C(=O)C[C@]2(C)C(=O)CC[C@@H]12
Measured On: UniProtKB Q14973
Recorded Measurement: 291.781

Molecule: O=C(CCCN1CCC(n2c(O)nc3ccccc32)CC1)c1ccc(F)cc1
Measured On: UniProtKB Q14973
Recorded Measurement: 422.659

Molecule: C#C[C@]1(O)CC[C@H]2[C@@H]3CCC4=CC(=O)CCC4=C3C=C[C@@]21CC
Measured On: UniProtKB Q14973
Recorded Measurement: 385.482

Molecule: COP(=O)(OC)C(O)C(Cl)(Cl)Cl (centres unmarked)
Measured On: UniProtKB Q14973
Recorded Measurement: 431.184
